test: Drug-drug interaction study Part 1: plasma PK after 20 mg mitapivat sulfate alone or with itraconazole; type: in vivo, human; details: both sexes, human; plasma; 20 mg mitapivat sulfate oral on Day 5 + 200 mg itraconazole QD Days 1-9 (Test); healthy subjects; read-out: Cmax, Geometric LSM
Each entry below carries its recorded Cmax.
Quick note: unit goes after the number.

| compound | Cmax |
| --- | --- |
| O=C(c1ccc(NS(=O)(=O)c2cccc3cccnc23)cc1)N1CCN(CC2CC2)CC1 [Mitapivat] | 704 ng/mL |

Could you now consider this next compound?
Q: Item O=C(c1ccc(NS(=O)(=O)c2cccc3cccnc23)cc1)N1CCNCC1 [Metabolite] has what recorded Cmax?
Ans: 9.11 ng/mL

====

assay: Drug-drug interaction study Part 1: plasma PK after 20 mg mitapivat sulfate alone or with itraconazole; type: in vivo, human; settings: both sexes, human; plasma; 20 mg mitapivat sulfate oral alone (Reference); healthy subjects; read-out: AUC0-inf, Geometric LSM
Attribute: AUC(0-inf)
Give your result in ng·h/mL as a bare value.

| molecule | reported result |
| --- | --- |
| O=C(c1ccc(NS(=O)(=O)c2cccc3cccnc23)cc1)N1CCN(CC2CC2)CC1 [Mitapivat] | 1940 |

Next, consider the following molecule.
Q: Tell me the measured AUC(0-inf) of O=C(c1ccc(NS(=O)(=O)c2cccc3cccnc23)cc1)N1CCNCC1 [Metabolite] , please.
Ans: 216
